FYI, the data here is from the METLIN SMRT retention time set (Domingo-Almenara et al. 2019).

experiment: gradient 5% acetonitrile 3 min, to 50% in 2 min, to 85% in 15 min, held 3 min, 100 µL/min; details: column: Zorbax Extend-C18 2.1 x 50 mm; eluents: water / acetonitrile, 0.1% formic acid
Grouping key: RP-LC retention time. Bins: lower band = under 800 s, central band = from 800 s up to 1000 s, upper band = 1000 s and over

Please review the following examples before continuing.
CCNC(=O)CCc1nc2ccccc2n(CC(=O)Nc2ccc(C(=O)OCC)cc2)c1=O	lower band
CCc1ccc(NS(=O)(=O)c2c(C)sc(C)c2-c2n[nH]c(C)c2C)cc1	upper band
COc1ccccc1NS(=O)(=O)c1ccc(-c2c(C)noc2C)cc1	central band
Cc1ccc(NC(=O)Nc2ccc3nncn3c2)cc1C	lower band

Problem: Textbook exercise: identify the category of the compound given here, O=C1CCc2cc(NC(=O)C3CC3)ccc2N1 , according to its measured value.
Result: lower band

Problem: Textbook exercise: identify the category of the compound given here, COc1ccc(C2CC(=O)N(c3ccc(C)c(F)c3)C(=O)C2)cc1 , according to its measured value.
Result: central band

Problem: Textbook exercise: identify the category of the compound given here, Cc1ccc(-c2noc(C3CC3)n2)cc1S(=O)(=O)N1CCC(C(=O)N2CCc3ccccc32)CC1 , according to its measured value.
Result: upper band

Problem: Textbook exercise: identify the category of the compound given here, Cc1cccc(-n2c(=O)c3sccc3n(Cc3nc(-c4ccc(OC(C)C)cc4)no3)c2=O)c1 , according to its measured value.
Result: upper band
